- TEST_SYSTEM: human melanocortin 1 receptor (human, UniProt Q01726 1-317)
- Sequence (Q01726 whole entry): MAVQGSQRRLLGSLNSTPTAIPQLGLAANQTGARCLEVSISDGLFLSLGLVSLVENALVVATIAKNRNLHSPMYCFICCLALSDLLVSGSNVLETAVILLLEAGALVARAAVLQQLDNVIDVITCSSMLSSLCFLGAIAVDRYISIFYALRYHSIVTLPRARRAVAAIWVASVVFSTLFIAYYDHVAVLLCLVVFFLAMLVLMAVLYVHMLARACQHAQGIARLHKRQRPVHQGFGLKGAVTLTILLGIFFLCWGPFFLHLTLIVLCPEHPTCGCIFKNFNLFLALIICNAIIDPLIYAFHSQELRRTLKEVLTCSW
- TEST_DETAILS: cell-based or functional assay
Positions of bridges follow the written chain, without caps; N, C: chain ends. Non-standard residues stand in square brackets, D forms with d. Pro(trans-4-guanidino) = N=C(N)N[C@H]1CN[C@H](C(=O)O)C1; Thz = O=C(O)[C@@H]1CSCN1; Aib = CC(C)(N)C(=O)O
Each entry below carries its recorded MC1R cAMP EC50.

Worked examples, 3 binders total:
binder="cyclo(C[Aib]H[dF]HWCAKKKW) (disulfide 1-7; SMILES C[C@@H]1NC(=O)[C@@H]2CSSC[C@H](NC(=O)[C@H](Cc3c[nH]c4ccccc34)NC(=O)[C@H](CCCCN)NC(=O)[C@H](CCCCN)NC(=O)[C@H](CCCCN)NC1=O)C(=O)NC(C)(C)C(=O)N[C@@H](Cc1c[nH]cn1)C(=O)N[C@H](Cc1ccccc1)C(=O)N[C@@H](Cc1c[nH]cn1)C(=O)N[C@@H](Cc1c[nH]c3ccccc13)C(=O)N2, also called c[c[Cys-Aib-His-D-Phe-His-Trp-Cys]-Ala-Lys-Lys-Lys-Trp]) [Chem. 61]" value_reported="> 1 nM"
binder="cyclo(C[Thz]H[dF]HWCADDAW) (disulfide 1-7; SMILES C[C@@H]1NC(=O)[C@H](CC(=O)O)NC(=O)[C@H](CC(=O)O)NC(=O)[C@H](C)NC(=O)[C@@H]2CSSC[C@H](NC(=O)[C@H](Cc3c[nH]c4ccccc34)NC1=O)C(=O)N1CSC[C@H]1C(=O)N[C@@H](Cc1c[nH]cn1)C(=O)N[C@H](Cc1ccccc1)C(=O)N[C@@H](Cc1c[nH]cn1)C(=O)N[C@@H](Cc1c[nH]c3ccccc13)C(=O)N2, also called c[c[Cys-THAZ-His-D-Phe-His-Trp-Cys]-Ala-Asp-Asp-Ala-Trp]) [Chem. 106]" value_reported="> 100 nM"
binder="cyclo(CAH[dF][Pro(trans-4-guanidino)]WCAH[dF][Pro(trans-4-guanidino)]W) (disulfide 1-7; SMILES C[C@@H]1NC(=O)[C@@H]2CSSC[C@H](NC(=O)[C@H](Cc3c[nH]c4ccccc34)NC(=O)[C@@H]3C[C@@H](NC(=N)N)CN3C(=O)[C@@H](Cc3ccccc3)NC(=O)[C@H](Cc3c[nH]cn3)NC1=O)C(=O)N[C@@H](C)C(=O)N[C@@H](Cc1c[nH]cn1)C(=O)N[C@H](Cc1ccccc1)C(=O)N1C[C@H](NC(=N)N)C[C@H]1C(=O)N[C@@H](Cc1c[nH]c3ccccc13)C(=O)N2, also called c[c[Cys-Ala-His-D-Phe-4trans-GuaPro-Trp-Cys]-Ala-His-D-Phe-4trans-GuaPro-Trp]) [Chem. 28]" value_reported="> 100 nM"

Look up MC1R cAMP EC50 for this binder: cyclo(CAH[dF]RWRCAH[dF]RWR) (disulfide 1-8; SMILES C[C@@H]1NC(=O)[C@@H]2CSSC[C@H](NC(=O)[C@H](CCCNC(=N)N)NC(=O)[C@H](Cc3c[nH]c4ccccc34)NC(=O)[C@H](CCCNC(=N)N)NC(=O)[C@@H](Cc3ccccc3)NC(=O)[C@H](Cc3c[nH]cn3)NC1=O)C(=O)N[C@@H](C)C(=O)N[C@@H](Cc1c[nH]cn1)C(=O)N[C@H](Cc1ccccc1)C(=O)N[C@@H](CCCNC(=N)N)C(=O)N[C@@H](Cc1c[nH]c3ccccc13)C(=O)N[C@@H](CCCNC(=N)N)C(=O)N2, also called c[c[Cys-Ala-His-D-Phe-Arg-Trp-Arg-Cys]-Ala-His-D-Phe-Arg-Trp-Arg]) [Chem. 69] 6.9 nM

Origin of measurements: patent US20200223889A1
